# measurement_notes: yeast display, Sf9 membrane polyspecificity reagent, FACS + sequencing; frameworks hold sequencing errors
measurement_name: polyreactivity (PSR sort gate)

| seq | measurement_name | recorded_result |
| --- | --- | --- |
| QVQLQESGGGLVQAGGCLRLSCAASGSIFTYAVMGWYRQAHGKEHELVATIDTGSSTYYADSVKGRITISRDNAKNTLYLQMNSLIPEDTAVYYCAVNTYCRVRYRYWGQGTQVTVSS | polyreactivity (PSR sort gate) | high polyreactivity |
| QVQLVESGGGLVQAGGSLRLSCAASGSIFGAIAMGWYRQAPGKERELVPAITSGGSTNYADSVKGRFTISRDNAKNTFYLQMNSLKPEDTAVYYCAARRRYAKFRYDYWGQGTQVTVSS | polyreactivity (PSR sort gate) | high polyreactivity |
| QVQLVESGGRLVQAGGSLRLSCAASGRIFAFYAMGWYRQAPGKERELVAAITSGGSTKYADSVKGRFTISRDNAKNTVYLQMNSLKPEDTAVYYCAAVESGYGSKRFYYWGQGTQVTVSS | polyreactivity (PSR sort gate) | high polyreactivity |
| QVHLVESGGGLVQAGGSLRLSCAASGRTFNRTAMGSYRQAPGKERELVAAMSWRGDSTSYADSVKGRFTISRDNAKNTVYLQMNSLKPADTAVYYCATAHDYAFYRYWYVPSEYYYWGQGTQVTVSW | polyreactivity (PSR sort gate) | low polyreactivity |
| QVQLVESGGGLVQAGGSLRLSCAASGRTFAYNDMGWYRQAPGKERELVAAITSVASTYYADSVKGRFTISRDNAKNTVYLQMNSLKPEDTAVYYCAADTRSLRPRYQLYGEDSWGQGTQVTVSS | polyreactivity (PSR sort gate) | low polyreactivity |

Complete the entry with polyreactivity (PSR sort gate) for `QVQLVESGGGLVQAGGSLRLSCSASGFIFFRYSMGWYIQAPGKERELVAAINSSGDSTYADSVKGRFTISRDNAKNTFYLQMNSLKPEDTAVYYCATGGRTEIWYPTLDYWGQGTQVTVSS`
low polyreactivity

Answer with reported polyreactivity (PSR sort gate) of `QVQLVESGGGLVQAGGSLRLSCAASGFTNAMGWYRQAPGKERELVAAISYSGDSTNYADSVKGRFTISRDNAKNTVYLQINSVKPEDTAVYYCNASSPYDYDWGQGTHVTVSS`
low polyreactivity

Note down polyreactivity (PSR sort gate) recorded for `QVQLVESGGGLVQAGGSLRLSCAASGSIFASYAMGWYRQAPGKERELVAAISRSGTSTRYADSVKGRFTISRDNAKNTVYLLMNSLKPEDTAVYYCAARWYVFFRKYDYWGQGTQVTVSS`
high polyreactivity

Please supply the value of reported polyreactivity (PSR sort gate) for the item `QVQLQESGGGLVLAGGSLRLNCAESGYISWSFTMGWYRKPTGKEREFVAGITYGGITYYADSVKGRFTISRDNAKNTVYLEMNRLKPEDTAVYYCAAPQSYPYVYVYWGQGTEVTVSS`
high polyreactivity

Indicate the recorded polyreactivity (PSR sort gate) value for this sequence: `QVQLVESGGGLVQAGGSLRFSCAASGRTFYRYAMGWYRQAPGKERVLVAAISGSGGSTYYADSVKGRFTISRDNAKNTVYLQMNSLKPEDTAVYYCAADGPSHHGDDDYWGQGTQVTVSS`
low polyreactivity

Retrieve polyreactivity (PSR sort gate) measured for `QVQLVESGGGLVQAGGSLRLSCAASGFILRYYAMGWYRQAPGKERELVAAISSGGGTYYADSVKGRFTISRDNAKNTVYLQMNSLKPEDTAVYYCAAVYWGLWHWLYTDDDGDYWGQGTQVTVSS` and print it.
high polyreactivity

Please give measured polyreactivity (PSR sort gate) of the following entry: `QVQLVESGGGLVQEGGSLRVSCAASGSTLIRNVMVRYRQAPGKERELVAVITYGVGSTYYADSVKGRFTISRDNAKNTVYLQMNSLKPEDTAVYYCNKDPLVFDYWGQGTQVTVSS`
low polyreactivity

Quick one: give measured polyreactivity (PSR sort gate) for `QVQLQESGGDLVQAGGSLRLSCAASGTIYGLTSMGSYRQRPGKEREFVAAITDGGNTNYADSVKGRFTISRDNAKNTVYLQMISLKPDETAVYYWAVLFSDDAYYAYWGQGTQVTVSS`
low polyreactivity

* * *

# measurement_notes: yeast display, Sf9 membrane polyspecificity reagent, FACS + sequencing; frameworks hold sequencing errors
measurement_name: polyreactivity (PSR sort gate)

Would you please look over these solved cases?
| seq | polyreactivity (PSR sort gate) |
| --- | --- |
| QVQLVESGGGLVQAGGSLRLSCAASGSTFWYNAMGWYRQAPGKERELVAAITQSGTRTYYADSVKGRFTISRDNAKNTVYLQMNSLKPEDTAVYYCAARGREWYYWGQGTQVTVSS | high polyreactivity |
| QVQLVESGGGLVQAGGSLRLSCAASGGTFRPNAMGWYRQAPGKERELVAAITRSGGSTYYADSVKGRFTISRDNAKNTVYLQMNSLKPEDTAVYYCARDLRECGQGTQVTVSS | low polyreactivity |
| QVQLVESGGGLVQAGCSLRLSCAASGSIFKQNTMGWYRQAPGKERELVAAISSGGSTYYADSVKGRFTISRDNAKNTVYLQMNSLKPEDTAVYYCAAVTVIGGEYDYWGQGTQVTVSS | low polyreactivity |
| QVQLVESGGGLVQAGGSLRLSCAASGFIFPGNVMGWYIQAPWKERELVAAISSGGGSTYYADSVKGRFTISRDNAKNSVYLQMNSLKPEDTAVYYCAKRTPRKWGQGTQVTVSS | high polyreactivity |
| QVQLVESGGGLVQAGGSLRLICAPSGIIFTSNTMGWSRQAPGNERECVASINWNGSSTYADSVKGRFTISRDIAKNTVYLQMNSLKPEDTAVFYCNADYNRNSVQFSLYDYWGQGTQVTVSS | low polyreactivity |

Input `QVQLVESGGGLVQAGGSLRLSCAASGSIFRSYAMGWYRPAPGKERELVAAISSGGRTKYADSVKGRFTISRDNAKNTVYLQMNSLKPEDTAVYYCAARAYYARFLMGYWGQGTQVTVSS` , output reported polyreactivity (PSR sort gate).
high polyreactivity

Please supply the value of reported polyreactivity (PSR sort gate) for the item `QVQLVESGGGLVQAGGSLRLSCAASGSTFRVYGMGWSRQAPGKERELVAVIRWRGGRTSYADSVKGRFTISRDYAKNTVYLQLNSLKPEDTAVYYCARQRSYGRSSYSYGYDYWGQGTQVTVSS`
high polyreactivity

Report polyreactivity (PSR sort gate) for `QVQLVESGGGLVQAGGSIRLSCAASGFIFRGNAMGWYRQAPGKERELVARISGSGDSTYYADSVKGRFTISRDNAKNTVYFQMNSQKPEATEVYDCNADVFPGVEAYDSTIEYYSWGQGTQVTVSS`
low polyreactivity

Return value of polyreactivity (PSR sort gate) for input `QVQLVESGGGLVQAGGSLRLSCAASGSIFGLNAMGWYRQAPGKERELVAAISVSGTRTYYADSVKGRFTISRDNAKNTGYLQMNSLKPEDTAVYYCAAYSYSSSFGYRYDYWGQGTQVTVSS` , no commentary.
high polyreactivity

Please report the measured polyreactivity (PSR sort gate) for `QVQLVESGGGLVQAGGSLRLSCAASGLIVWYYAMGWYRQAPGKERELVATITSRGGSTYYADSVKGRFTISRDNAKNTVYLQMNSLKPEDTAVYYCARENPGDSYYDYWGQATQVTVSS`
low polyreactivity

Fill in polyreactivity (PSR sort gate) for record `QVQLVESGGGLVQAGGSLRLSCAASGLTFKLYVMGWYRQAPRKERELVAAISGGGSTYYADSVKGRFTISRDNAKNTVYLQMYSLKPEDTAVYYCAAVRYFEYEYWGQGTQVTVSS`
low polyreactivity

* * *

# measurement_notes: yeast display, Sf9 membrane polyspecificity reagent, FACS + sequencing; frameworks hold sequencing errors
measurement_name: polyreactivity (PSR sort gate)

| seq | polyreactivity (PSR sort gate) |
| --- | --- |
| QVQLVESGGGLVQAGGSLRLSCAASGSIFYVYAMGWYRQAPGKERELVAAITNYADSVKGRFTISRDNAKNTVYLQMNSLKPEDTAVYYCAADWWRVEMDYWGQVTQVTVSS | low polyreactivity |
| QVQLVESGGGLVQAGGSLRLSCAASGSTFWYAMGWYRQAPGKERELVAAITARGGRTYYADSVKGRFTISRDNAKNTVYLQMNSLKPEDTAVYYCAAVSTGIGARYNYWGQGTQVTVSS | high polyreactivity |
| QVQLVESGGGLVQAGGSLRISCAASGRIFYYNAIGWYRQAPGKERELVATITGSGGSSYYADSVKGRFTISRDNAKNTVYLQMKTLKPEDSAVYYCIASRWYYDFYNLDYWGQGTQVTVSS | low polyreactivity |
| QVQLVESGGGLVQAGGSLRLSCAASGRILRGNAMGWYRQAPGKERELVADINYSDGSTYYADSVKGRFTISRDNAKNTVYLQMNSLKPEDTAVYYCAADLRITSYNSWGHGTQVTVSS | low polyreactivity |

Please examine the following record next.
Look up polyreactivity (PSR sort gate) of `QVQLVESGGGLVQAGGSLRLISAASGITFRYYVMGWYRHAPGKERELVASISWGGGSTYYADSVKGRFTISRDNAKNTVYLHMNSLIPEDTAVYYCAAEYWVPAVKFGYEFWGQGSQVTVSS` and report it.
high polyreactivity
